Test system: TOV-21G
methodSummary: Cell viability analysis (WST-1), TOV-21G
Assay type: cell-based
conditionNotes: Table 4, repeated experiments, drug 10 μM, 72 hours
Quick list: survival rate (viability) of cancer cells, TOV-21G per entry.
Just the number, please, no unit after it.

INSERT INTO results (compound, reading) VALUES
  ('CC(C)c1c(C(=O)Nc2ccccc2)c(-c2ccccc2)c(-c2ccc(F)cc2)n1CC[C@@H](O)C[C@@H](O)CC(=O)[O-].CC(C)c1c(C(=O)Nc2ccccc2)c(-c2ccccc2)c(-c2ccc(F)cc2)n1CC[C@@H](O)C[C@@H](O)CC(=O)[O-].[Ca+2] [Atorvastatin calcium (Lipitor), Atorvastatin calcium]', 34.04),
  ('CCOC(=O)C1=C(COCCN)NC(C)=C(C(=O)OC)C1c1ccccc1Cl (stereo not shown) [Amlodipine (Norvase), Amlodipine]', 61.32),
  ('CCOC(=O)C1=C(COCCN)NC(C)=C(C(=O)OC)C1c1ccccc1Cl (stereo not shown) [Amlodipine besylate (Norvase), Amlodipine besylate]', 93.55);

Kindly consider the entry below.
Query: Lab note: TOV-21G assay, enter survival rate (viability) of cancer cells, TOV-21G for O=C([O-])C[C@H](O)C[C@H](O)/C=C/c1c(C2CC2)nc2ccccc2c1-c1ccc(F)cc1.O=C([O-])C[C@H](O)C[C@H](O)/C=C/c1c(C2CC2)nc2ccccc2c1-c1ccc(F)cc1.[Ca+2] [Pitavastatin calcium (Livalo), Pitavastatin calcium] here
Result: 21.79

====

System: BCC
methodSummary: Cell viability analysis (WST-1), BCC
Format: cell-based
conditionNotes: Table 4, repeated experiments, drug 10 μM, 72 hours
measuredAttribute: survival rate (viability) of cancer cells, BCC
Just the number, please, no unit after it.

Consider the reported survival rate (viability) of cancer cells, BCC for these molecules:
INSERT INTO results (molecule, reading) VALUES
  ('CC(C)c1c(C(=O)Nc2ccccc2)c(-c2ccccc2)c(-c2ccc(F)cc2)n1CC[C@@H](O)C[C@@H](O)CC(=O)[O-].CC(C)c1c(C(=O)Nc2ccccc2)c(-c2ccccc2)c(-c2ccc(F)cc2)n1CC[C@@H](O)C[C@@H](O)CC(=O)[O-].[Ca+2] [Atorvastatin calcium (Lipitor), Atorvastatin calcium]', 41.49),
  ('CCOC(=O)C1=C(COCCN)NC(C)=C(C(=O)OC)C1c1ccccc1Cl (stereo not shown) [Amlodipine (Norvase), Amlodipine]', 74.9299),
  ('O=C([O-])C[C@H](O)C[C@H](O)/C=C/c1c(C2CC2)nc2ccccc2c1-c1ccc(F)cc1.O=C([O-])C[C@H](O)C[C@H](O)/C=C/c1c(C2CC2)nc2ccccc2c1-c1ccc(F)cc1.[Ca+2] [Pitavastatin calcium (Livalo), Pitavastatin calcium]', 26.77);

Kindly consider the entry below.
Query: Lab note: BCC assay, enter survival rate (viability) of cancer cells, BCC for CCOC(=O)C1=C(COCCN)NC(C)=C(C(=O)OC)C1c1ccccc1Cl (stereo not shown) [Amlodipine besylate (Norvase), Amlodipine besylate] here
Result: 102.9778

====

System: HL-60 (Acute Promyelocytic Leukemia)
methodSummary: Cell viability analysis (WST-1), HL-60
Assay type: cell-based
conditionNotes: Homo sapiens, HL-60; Table 3; drug 10 μM, 72 hours, WST-1, OD450 nm; read-out: survival rate (viability) of cancer cells, HL-60
Where a name gives a salt, the structure may show the parent alone.
measuredAttribute: viability at 10 µM (%)
Enter your answer as a number in %; do not include the unit.

Consider the reported viability at 10 µM for these molecules:
INSERT INTO measurements (molecule, experimentaltarget, measuredattribute, reading) VALUES
  ('CC(=O)O[C@H]1C[C@@H]2CC[C@@H]3[C@H](CC[C@@]4(C)[C@H]3C[C@H]([N+]3(C)CCCCC3)[C@@H]4OC(C)=O)[C@@]2(C)C[C@@H]1[N+]1(C)CCCCC1', 'HL-60 (Acute Promyelocytic Leukemia)', 'viability at 10 µM', 109),
  ('C#CCN[C@@H]1CCc2ccccc21 [Rasagiline mesylate]', 'HL-60 (Acute Promyelocytic Leukemia)', 'viability at 10 µM', 105),
  ('CC(=O)Oc1ccc(C(c2ccc(OC(C)=O)cc2)c2ccccn2)cc1', 'HL-60 (Acute Promyelocytic Leukemia)', 'viability at 10 µM', 96),
  ('NCCCCCC(=O)O', 'HL-60 (Acute Promyelocytic Leukemia)', 'viability at 10 µM', 93),
  ('Cc1cccc(Nc2ccccc2C(=O)O)c1C', 'HL-60 (Acute Promyelocytic Leukemia)', 'viability at 10 µM', 113);

Query: Lab note: HL-60 (Acute Promyelocytic Leukemia) assay, enter viability at 10 µM for "O=C(O)c1nn(Cc2ccc(Cl)cc2Cl)c2ccccc12" here
Result: 115

Query: Lab note: HL-60 (Acute Promyelocytic Leukemia) assay, enter viability at 10 µM for CC(C)OC(=O)C(C)(C)Oc1ccc(C(=O)c2ccc(Cl)cc2)cc1 [Fenofibrate (Tricor, Trilipix), Fenofibrate] here
Result: 77.6

Query: Lab note: HL-60 (Acute Promyelocytic Leukemia) assay, enter viability at 10 µM for "CCOC(=O)[C@H](CCc1ccccc1)N[C@@H](C)C(=O)N1[C@H](C(=O)O)C[C@@H]2CCC[C@@H]21" here
Result: 107

====

Tested on: A375 (Amelanotic Melanoma)
methodSummary: Cell viability analysis (WST-1), A375
Type: cell-based
conditionNotes: Homo sapiens, A-375, 72 h, Table 3, drug 10 μM, WST-1, OD450 nm, lower viability = better inhibition, read-out: survival rate (viability) of cancer cells, A375
Structures can show the parent of a compound that is named as a salt.
Quick list: viability at 10 µM per entry.
Enter your answer as a number in %; do not include the unit.

INSERT INTO assay_data (compound, reading) VALUES
  ('CC(C)OC(=O)C(C)(C)Oc1ccc(C(=O)c2ccc(Cl)cc2)cc1 [Fenofibrate (Tricor, Trilipix), Fenofibrate]', 159),
  ('CCOC(=O)[C@H](CCc1ccccc1)N[C@@H](C)C(=O)N1[C@H](C(=O)O)C[C@@H]2CCC[C@@H]21', 120),
  ('CCC(NC(C)C)C(O)c1ccc(O)c(O)c1 (stereo not shown) [Isoetharine Mesylate]', 97);

Kindly consider the entry below.
Query: Lab note: A375 (Amelanotic Melanoma) assay, enter viability at 10 µM for Cc1cccc(Cc2c[nH]cn2)c1C [Detomidine HCl] here
Result: 84.8

====

Tested on: HeLa (Cervix Adenocarcinoma)
methodSummary: Cell viability analysis (WST-1), HeLa
Assay type: cell-based
conditionNotes: Homo sapiens, HeLa, 72 h, Table 3, drug 10 μM, WST-1, OD450 nm, read-out: survival rate (viability) of cancer cells, HeLa
Where a name gives a salt, the structure may show the parent alone.
measuredAttribute: viability at 10 µM (%)
Enter your answer as a number in %; do not include the unit.

INSERT INTO measurements (molecule, reading) VALUES
  ('CC(C)NC[C@H](O)COc1ccc(CCOCC2CC2)cc1 [Levobetaxolol HCl]', 88.7),
  ('CO[C@@H]1[C@@H](OC(N)=O)[C@@H](O)[C@H](Oc2ccc3c(O)c(NC(=O)c4ccc(O)c(CC=C(C)C)c4)c(=O)oc3c2C)OC1(C)C [Novobiocin sodium (Albamycin), Novobiocin sodium]', 96.1),
  ('O=C(O)c1nn(Cc2ccc(Cl)cc2Cl)c2ccccc12', 61.6),
  ('Clc1ccccc1CN1CCc2sccc2C1 [Ticlopidine HCl]', 81.9),
  ('CCCNCC(O)COc1ccccc1C(=O)CCc1ccccc1 (stereo not drawn) [Propafenone (Rytmonorm), Propafenone]', 109);

Kindly consider the entry below.
Query: Find the measured viability at 10 µM of "O=C(O)/C=C/c1ccc(Cn2ccnc2)cc1" and report it.
Result: 77.7

====

Quick list: survival rate (viability) of cancer cells, A549 per entry.
System: A549 (Lung Adenocarcinoma)
methodSummary: Cell viability analysis (WST-1), A549
Assay type: cell-based
conditionNotes: Table 4, repeated experiments; drug 10 μM, 72 hours, WST-1
Just the number, please, no unit after it.

Query: Find the measured survival rate (viability) of cancer cells, A549 of CC(C)c1c(C(=O)Nc2ccccc2)c(-c2ccccc2)c(-c2ccc(F)cc2)n1CC[C@@H](O)C[C@@H](O)CC(=O)[O-].CC(C)c1c(C(=O)Nc2ccccc2)c(-c2ccccc2)c(-c2ccc(F)cc2)n1CC[C@@H](O)C[C@@H](O)CC(=O)[O-].[Ca+2] [Atorvastatin calcium (Lipitor), Atorvastatin calcium] and report it.
Result: 90.1462

Query: Find the measured survival rate (viability) of cancer cells, A549 of O=C([O-])C[C@H](O)C[C@H](O)/C=C/c1c(C2CC2)nc2ccccc2c1-c1ccc(F)cc1.O=C([O-])C[C@H](O)C[C@H](O)/C=C/c1c(C2CC2)nc2ccccc2c1-c1ccc(F)cc1.[Ca+2] [Pitavastatin calcium (Livalo), Pitavastatin calcium] and report it.
Result: 89.44

Query: Find the measured survival rate (viability) of cancer cells, A549 of CCOC(=O)C1=C(COCCN)NC(C)=C(C(=O)OC)C1c1ccccc1Cl (stereo not shown) [Amlodipine besylate (Norvase), Amlodipine besylate] and report it.
Result: 110.3104

Query: Find the measured survival rate (viability) of cancer cells, A549 of CCOC(=O)C1=C(COCCN)NC(C)=C(C(=O)OC)C1c1ccccc1Cl (stereo not shown) [Amlodipine (Norvase), Amlodipine] and report it.
Result: 89.22
